Recorded values, source patent US20230040770A1.

- TARGET OR SYSTEM: human orexin type 2 receptor (Homo sapiens, UniProt O43614)
- Construct: expressed in transfected cells
- METHOD SUMMARY: Measurement of orexin type 2 receptor agonist activity (calcium indicator fluorescence, CHO cells forcibly expressing human OX2 receptor)
- Format: cell-based
- TEST SETTINGS: compound at 3 μM; 0% = DMSO, 100% = orexin A (human) 10 nM
PROPERTY MEASURED: OX2R agonist activity (3 μM, %)
Record the value in %, omitting the unit from your answer.

Consider the worked cases shown below.
CC(C)(O)C(=O)N1CC(F)(F)[C@H](NS(C)(=O)=O)[C@@H]1Cc1cccc(-c2ccccc2)c1F	101
O=C(C1CC1)N1C[C@H](F)[C@H](NS(=O)(=O)C2CC2)[C@@H]1Cc1cccc(-c2cccc(F)c2)c1F	89
CS(=O)(=O)N[C@@H]1[C@H](Cc2cccc(-c3cc(F)ccc3F)c2F)N(C(=O)C2CC(F)C2)CC1(F)F (stereo partly shown) [Example 439]	93
O=C(C1CCO1)N1C[C@H](F)[C@H](NS(=O)(=O)C2CC2)[C@@H]1Cc1cccc(-c2cc(F)ccc2F)c1F (stereo partly shown) [Example 495]	92
CS(=O)(=O)N[C@@H]1[C@H](Cc2cccc(-c3ccccc3)c2F)N(C(=O)C23CC(C2)C3)CC1(F)F	93

Noted for CCS(=O)(=O)N[C@@H]1[C@H](Cc2cccc(-c3cccc(F)c3)c2F)N(C(=O)[C@H]2CCO2)CC1(F)F : its OX2R agonist activity (3 μM, %) reads 100

Noted for Cc1cccc(-c2cccc(C[C@H]3[C@@H](NS(=O)(=O)C4CC4)[C@@H](F)CN3C(=O)C3CCO3)c2F)c1F (stereo partly shown) [Example 490] : its OX2R agonist activity (3 μM, %) reads 93

---

- TARGET OR SYSTEM: human orexin type 2 receptor (Homo sapiens)
- Construct: expressed in transfected cells
- Sequence (O43614 1-444): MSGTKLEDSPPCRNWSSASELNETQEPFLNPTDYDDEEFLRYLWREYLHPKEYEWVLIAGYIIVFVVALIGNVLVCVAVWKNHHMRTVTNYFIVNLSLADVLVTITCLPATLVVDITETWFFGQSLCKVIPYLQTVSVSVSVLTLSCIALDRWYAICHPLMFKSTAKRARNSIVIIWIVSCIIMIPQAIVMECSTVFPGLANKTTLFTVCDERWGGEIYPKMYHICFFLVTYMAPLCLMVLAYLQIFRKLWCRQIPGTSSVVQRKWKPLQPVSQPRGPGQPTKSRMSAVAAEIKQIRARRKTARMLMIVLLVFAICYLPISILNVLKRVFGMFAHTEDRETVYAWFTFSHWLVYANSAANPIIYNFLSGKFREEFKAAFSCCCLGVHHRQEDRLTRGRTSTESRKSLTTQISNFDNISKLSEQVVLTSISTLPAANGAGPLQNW
- METHOD SUMMARY: Measurement of orexin type 2 receptor agonist activity (calcium indicator fluorescence, CHO cells forcibly expressing human OX2 receptor)
- Assay type: cell-based
- TEST SETTINGS: compound at 3 μM; 0% = DMSO, 100% = orexin A (human) 10 nM
- Excerpt: To obtain a cell clone stably expressing human orexin type 2 receptor, human orexin type 2 receptor cDNA was inserted into pcDNA3.1(+) plasmid vector (Invitrogen), and a plasmid DNA for expression of human orexin type 2 receptor (pcDNA3.1(+)/hOX2R) was cloned. The plasmid DNA was introduced into CHO-dhfr cell by an electroporation method, and human orexin type 2 receptor expressing clone cells were obtained by limiting dilution method by using G418 drug resistance as a selection marker. […]
// reported OX2R agonist activity (3 μM, %) for each item listed

Consider the worked cases shown below.
Cc1ccc(F)c(-c2cccc(C[C@H]3[C@@H](NS(=O)(=O)C4CC4)[C@@H](F)CN3C(=O)C3CCO3)c2F)c1 (some centres unmarked) [Example 488]	95%
CCS(=O)(=O)N[C@@H]1[C@H](Cc2cccc(-c3cccc(F)c3)c2F)N(C(=O)[C@H]2C[C@H](F)C2)CC1(F)F [Example 225]	96%
CCS(=O)(=O)N[C@@H]1[C@H](Cc2cccc(-c3ccccc3)c2F)N(C(=O)C2(O)CCC2)CC1(F)F [Example 23]	100%
CS(=O)(=O)N[C@@H]1[C@H](Cc2cccc(-c3cccc(F)c3F)c2F)N(C(=O)C2CC(F)C2)CC1(F)F (some centres unmarked) [Example 436]	92%
CCS(=O)(=O)N[C@@H]1[C@H](Cc2cccc(-c3cccc(OC)c3)c2F)N(C(=O)C2CC2)CC1(F)F [Example 512]	95%

Entry CCS(=O)(=O)N[C@H]1[C@@H](F)CN(C(=O)C23CC(C2)C3)[C@H]1Cc1cccc(-c2cc(F)ccc2F)c1F [Example 306] under human orexin type 2 receptor (Homo sapiens) had OX2R agonist activity (3 μM, %) of 89%

Entry CCS(=O)(=O)N[C@H]1[C@@H](F)CN(C(=O)N2CCC2)[C@H]1Cc1cccc(-c2cccc(F)c2)c1F [Example 211] under human orexin type 2 receptor (Homo sapiens) had OX2R agonist activity (3 μM, %) of 94%

Entry CCS(=O)(=O)N[C@@H]1[C@H](Cc2cccc(-c3cc(F)cc(F)c3)c2F)N(C(=O)C(C)C)CC1(F)F [Example 146] under human orexin type 2 receptor (Homo sapiens) had OX2R agonist activity (3 μM, %) of 92%

Entry CCS(=O)(=O)N[C@@H]1[C@H](Cc2cccc(-c3cccc(OC)c3)c2F)N(C(=O)C2(O)CCC2)CC1(F)F [Example 513] under human orexin type 2 receptor (Homo sapiens) had OX2R agonist activity (3 μM, %) of 97%

Entry CCS(=O)(=O)N[C@@H]1[C@H](Cc2cccc(-c3cccc(Cl)c3)c2F)N(C(=O)C2CCO2)CC1(F)F (some centres unmarked) [Example 268] under human orexin type 2 receptor (Homo sapiens) had OX2R agonist activity (3 μM, %) of 94%

Entry CCS(=O)(=O)N[C@@H]1[C@H](Cc2cccc(-c3ccccc3)c2)N(C(=O)C2CCO2)CC1(F)F (some centres unmarked) [Example 50] under human orexin type 2 receptor (Homo sapiens) had OX2R agonist activity (3 μM, %) of 99%

Entry O=C(C1CCO1)N1C[C@H](F)[C@H](NS(=O)(=O)C2CC2)[C@@H]1Cc1cccc(-c2cc(F)cc(F)c2)c1F (some centres unmarked) [Example 479] under human orexin type 2 receptor (Homo sapiens) had OX2R agonist activity (3 μM, %) of 93%

Entry CCS(=O)(=O)N[C@@H]1[C@H](Cc2cccc(-c3cccc(C)c3)c2F)N(C(=O)C2CCO2)CC1(F)F (some centres unmarked) [Example 277] under human orexin type 2 receptor (Homo sapiens) had OX2R agonist activity (3 μM, %) of 94%

Entry CCS(=O)(=O)N[C@@H]1[C@H](Cc2cccc(-c3ccccc3)c2F)N(C(=O)C2CCO2)CC1(F)F (some centres unmarked) [Example 45] under human orexin type 2 receptor (Homo sapiens) had OX2R agonist activity (3 μM, %) of 98%

---

// reported OX2R agonist activity (3 μM, %) for each item listed
- TARGET OR SYSTEM: human orexin type 2 receptor (Homo sapiens, UniProt O43614)
- Construct: expressed in transfected cells
- METHOD SUMMARY: Measurement of orexin type 2 receptor agonist activity (calcium indicator fluorescence, CHO cells forcibly expressing human OX2 receptor)
- Type: cell-based
- TEST SETTINGS: compound at 3 μM; 0% = DMSO, 100% = orexin A (human) 10 nM
Record the value in %, omitting the unit from your answer.

CCS(=O)(=O)N[C@H]1[C@@H](F)CN(C(=O)C(C)C)[C@H]1Cc1cccc(-c2cc(F)cc(F)c2)c1F [Example 296]	96
CS(=O)(=O)N[C@@H]1[C@H](Cc2cccc(-c3cc(F)ccc3F)c2F)N(C(=O)[C@H]2CCO2)CC1(F)F [Example 122]	89
CCS(=O)(=O)N[C@H]1[C@@H](F)CN(C(=O)N(C)C)[C@H]1Cc1cccc(-c2cccc(F)c2F)c1F [Example 330]	98
O=C(C1CCO1)N1C[C@H](F)[C@H](NS(=O)(=O)C2CC2)[C@@H]1Cc1cccc(-c2cccc(F)c2)c1F (stereo partly shown) [Example 385]	95
Cc1cccc(-c2cccc(C[C@H]3[C@@H](NS(=O)(=O)C4CC4)[C@@H](F)CN3C(=O)N3CCC3)c2F)c1 [Example 543]	99

Noted for CS(=O)(=O)N[C@@H]1[C@H](Cc2cccc(-c3cccc(F)c3)c2F)N(C(=O)[C@H]2CCO2)CC1(F)F [Example 81] : its OX2R agonist activity (3 μM, %) reads 95

Noted for CS(=O)(=O)N[C@@H]1[C@H](Cc2cccc(-c3ccccc3)c2F)N(C(=O)C2CC(F)C2)CC1(F)F (stereo partly shown) [Example 441] : its OX2R agonist activity (3 μM, %) reads 93

---

// reported OX2R agonist activity (3 μM, %) for each item listed
- TARGET OR SYSTEM: human orexin type 2 receptor (Homo sapiens)
- Construct: expressed in transfected cells
- Sequence (O43614 1-444): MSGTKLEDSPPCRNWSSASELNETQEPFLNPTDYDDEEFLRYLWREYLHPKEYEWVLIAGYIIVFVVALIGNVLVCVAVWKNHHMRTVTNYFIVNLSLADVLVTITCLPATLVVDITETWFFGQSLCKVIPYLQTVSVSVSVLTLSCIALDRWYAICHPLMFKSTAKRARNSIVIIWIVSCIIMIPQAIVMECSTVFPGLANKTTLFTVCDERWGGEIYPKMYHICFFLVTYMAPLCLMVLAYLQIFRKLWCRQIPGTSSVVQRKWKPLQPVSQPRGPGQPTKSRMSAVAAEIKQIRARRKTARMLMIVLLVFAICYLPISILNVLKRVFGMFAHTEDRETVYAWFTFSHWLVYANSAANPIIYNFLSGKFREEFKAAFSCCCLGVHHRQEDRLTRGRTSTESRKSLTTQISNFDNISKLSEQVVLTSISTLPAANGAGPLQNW
- METHOD SUMMARY: Measurement of orexin type 2 receptor agonist activity (calcium indicator fluorescence, CHO cells forcibly expressing human OX2 receptor)
- Type: cell-based
- TEST SETTINGS: compound at 3 μM; 0% = DMSO, 100% = orexin A (human) 10 nM
- Source text: To obtain a cell clone stably expressing human orexin type 2 receptor, human orexin type 2 receptor cDNA was inserted into pcDNA3.1(+) plasmid vector (Invitrogen), and a plasmid DNA for expression of human orexin type 2 receptor (pcDNA3.1(+)/hOX2R) was cloned. The plasmid DNA was introduced into CHO-dhfr cell by an electroporation method, and human orexin type 2 receptor expressing clone cells were obtained by limiting dilution method by using G418 drug resistance as a selection marker. […]
Record the value in %, omitting the unit from your answer.

Consider the worked cases shown below.
CN(C)C(=O)N1CC(F)(F)[C@H](NS(=O)(=O)C2CC2)[C@@H]1Cc1cccc(-c2cccc(F)c2)c1F [Example 523]	86
CCS(=O)(=O)N[C@@H]1[C@H](Cc2cccc(-c3cccc(C)c3F)c2F)N(C(=O)C2(O)CCC2)CC1(F)F [Example 276]	88
O=C(C1CCO1)N1C[C@H](F)[C@H](NS(=O)(=O)C2CC2)[C@@H]1Cc1cccc(-c2cc(F)cc(F)c2)c1F (stereo partly shown) [Example 493]	95
CCS(=O)(=O)N[C@@H]1[C@H](Cc2cccc(-c3cc(F)cc(F)c3)c2F)N(C(=O)[C@H]2CCCO2)CC1(F)F [Example 454]	84
Cc1cc(F)cc(-c2cccc(C[C@H]3[C@@H](NS(=O)(=O)C4CC4)C(F)(F)CN3C(=O)[C@H]3CCO3)c2F)c1 [Example 533]	101

Entry CCS(=O)(=O)N[C@@H]1[C@H](Cc2cccc(-c3cccc(F)c3)c2F)N(C(=O)[C@H]2C[C@@H](F)C2)CC1(F)F [Example 226] under human orexin type 2 receptor (Homo sapiens) had OX2R agonist activity (3 μM, %) of 100

Entry CS(=O)(=O)N[C@H]1[C@@H](F)CN(C(=O)C2CCO2)[C@H]1Cc1cccc(-c2cccc(F)c2)c1F (stereo partly shown) [Example 323] under human orexin type 2 receptor (Homo sapiens) had OX2R agonist activity (3 μM, %) of 92
